- TEST_SUMMARY: amyloid nucleation score (Sup35N fusion, yeast selection) (log enrichment); library NNK3; higher = more nucleation; inactive = no reads after selection;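 note: zero at mode of non-aggregating sequences after 7 days selection at 30°C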
READOUT: amyloid nucleation score

// solved cases for amyloid nucleation score follow
KFLPGCCFYMRIMSQVSLKN : inactive
DRPRQRTAFVYRQWLMYYQ : inactive
NIFSQWYIISCLFRGKLCEH : 1
TVSKANWVLLEFLTFCGMI : 1.74
WIMPLDQ : inactive
KRKQVSFTH : inactive
NEHSYLSGSWYPRSHLIYYC : inactive
EYYRWFYN : inactive
HSTGFPCLLVKITGLRHRLG : inactive
KFFYCERVLSGNRVKRHERI : 0.676

Let me know recorded amyloid nucleation score for TMLVFGIVNTLVVDNLRSSI , thanks. 2.01

Let me know recorded amyloid nucleation score for FRCPMFFNCSSVLTSHVSLA , thanks. 1.34

Let me know recorded amyloid nucleation score for TPSSCSTLCQTDMQDQWRVG , thanks. inactive

Let me know recorded amyloid nucleation score for KSGYCNKCMNGFSGTLTSNY , thanks. inactive

Let me know recorded amyloid nucleation score for LGCTGALNNRCCERQANGRQ , thanks. inactive

Let me know recorded amyloid nucleation score for TNRFIFPFLNVTHAVLFIFT , thanks. 1.02

Let me know recorded amyloid nucleation score for DRAGHGSV , thanks. inactive

Let me know recorded amyloid nucleation score for YKLKLIKEFCIGIRC , thanks. inactive

Let me know recorded amyloid nucleation score for HFEIVSVANKITYCLCQQML , thanks. 2.28

Let me know recorded amyloid nucleation score for FDKGFLMTLNTLAVLSNQE , thanks. inactive

Let me know recorded amyloid nucleation score for TYAYELRIFSDYSHGLGFDP , thanks. -0.659

Let me know recorded amyloid nucleation score for RIRCVMFGGRKSRRKLDSVV , thanks. inactive

Let me know recorded amyloid nucleation score for LYPMGFQ , thanks. inactive

Let me know recorded amyloid nucleation score for AVSSSLNWLGFVRISGSRY , thanks. -0.432

Let me know recorded amyloid nucleation score for LFGQVVGVDFFNWWCFEMHK , thanks. inactive

Let me know recorded amyloid nucleation score for KQRVASTTTVAPHPKNKD , thanks. inactive

Let me know recorded amyloid nucleation score for LNVCVMEKNSNLRWSYWDLC , thanks. 1.09

Let me know recorded amyloid nucleation score for VKKDMRRLLMFRIGGKSFGG , thanks. inactive

Let me know recorded amyloid nucleation score for DRDSALWIMTVWVRGSHYTR , thanks. inactive

Let me know recorded amyloid nucleation score for SHRNTKKFMEWIFLYFIPTM , thanks. 0.064

Origin of the recorded values: the supplement of paper PMC12042874
